- Experimental system: Factor X, P00742
- Sequence (P00742 whole entry, looked up): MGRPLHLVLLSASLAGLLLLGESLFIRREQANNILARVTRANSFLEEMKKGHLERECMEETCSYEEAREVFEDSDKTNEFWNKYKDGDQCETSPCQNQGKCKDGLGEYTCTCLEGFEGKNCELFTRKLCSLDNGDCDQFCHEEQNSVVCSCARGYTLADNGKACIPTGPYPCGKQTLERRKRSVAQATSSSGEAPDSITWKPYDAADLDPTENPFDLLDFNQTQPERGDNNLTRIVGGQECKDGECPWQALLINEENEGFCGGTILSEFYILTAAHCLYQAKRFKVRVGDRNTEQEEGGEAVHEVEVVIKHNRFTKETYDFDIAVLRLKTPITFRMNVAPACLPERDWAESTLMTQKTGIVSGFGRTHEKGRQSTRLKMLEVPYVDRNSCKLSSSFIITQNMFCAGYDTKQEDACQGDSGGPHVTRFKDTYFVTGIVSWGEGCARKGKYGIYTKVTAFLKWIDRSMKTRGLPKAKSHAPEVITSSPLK

[
  {
    "Protein": "FIXa K228N/K247N/N249S/R318Y/R338E/R403E/E410N (protein) chain 1: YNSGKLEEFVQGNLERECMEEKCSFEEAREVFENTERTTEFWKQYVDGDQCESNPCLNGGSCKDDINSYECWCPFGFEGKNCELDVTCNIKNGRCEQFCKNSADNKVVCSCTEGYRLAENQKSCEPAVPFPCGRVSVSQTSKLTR chain 2: VVGGEDAKPGQFPWQVVLNGKVDAFCGGSIVNEKWIVTAAHCVETGVNITVVAGEHNIEETEHTEQNRSVIRIIPHHNYNAAINKYNHDIALLELDEPLVLNSYVTPICIADKEYTNIFLKFGSGYVSGWGRVFHKGYSALVLQYLRVPLVDRATCLESTKFTIYNNMFCAGFHEGGRDSCQGDSGGPHVTEVEGTSFLTGIISWGEECAMKGKYGIYTKVSEYVNWIKNKTKLT",
    "% of WT kcat/KM, %": 352
  },
  {
    "Protein": "FIXa-D104N/K106S/Y155F/K247N/N249S/N260S (protein) chain 1: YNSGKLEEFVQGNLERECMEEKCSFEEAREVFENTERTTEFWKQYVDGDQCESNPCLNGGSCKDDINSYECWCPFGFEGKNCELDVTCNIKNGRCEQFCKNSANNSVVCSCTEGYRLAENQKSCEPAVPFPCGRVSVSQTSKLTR chain 2: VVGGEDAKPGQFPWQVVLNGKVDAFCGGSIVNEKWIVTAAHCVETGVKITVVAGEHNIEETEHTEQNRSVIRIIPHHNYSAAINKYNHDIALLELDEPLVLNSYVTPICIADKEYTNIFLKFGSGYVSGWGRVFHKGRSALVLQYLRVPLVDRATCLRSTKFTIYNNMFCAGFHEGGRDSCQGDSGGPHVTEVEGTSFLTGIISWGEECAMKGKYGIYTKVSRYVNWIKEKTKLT",
    "% of WT kcat/KM, %": 18
  },
  {
    "Protein": "FIXa-R318Y/R338E/E410S (protein) chain 1: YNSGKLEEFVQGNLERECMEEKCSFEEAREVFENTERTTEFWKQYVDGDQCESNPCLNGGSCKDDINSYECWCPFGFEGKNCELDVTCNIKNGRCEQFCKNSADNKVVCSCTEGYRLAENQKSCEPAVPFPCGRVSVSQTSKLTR chain 2: VVGGEDAKPGQFPWQVVLNGKVDAFCGGSIVNEKWIVTAAHCVETGVKITVVAGEHNIEETEHTEQKRNVIRIIPHHNYNAAINKYNHDIALLELDEPLVLNSYVTPICIADKEYTNIFLKFGSGYVSGWGRVFHKGYSALVLQYLRVPLVDRATCLESTKFTIYNNMFCAGFHEGGRDSCQGDSGGPHVTEVEGTSFLTGIISWGEECAMKGKYGIYTKVSRYVNWIKSKTKLT",
    "% of WT kcat/KM, %": 730
  },
  {
    "Protein": "FIXa-R318Y/R338E/R403E/E410N/T412A (protein) chain 1: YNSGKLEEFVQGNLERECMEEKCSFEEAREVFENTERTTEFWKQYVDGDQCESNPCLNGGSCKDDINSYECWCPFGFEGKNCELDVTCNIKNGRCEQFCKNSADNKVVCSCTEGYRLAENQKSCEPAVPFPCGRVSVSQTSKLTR chain 2: VVGGEDAKPGQFPWQVVLNGKVDAFCGGSIVNEKWIVTAAHCVETGVKITVVAGEHNIEETEHTEQKRNVIRIIPHHNYNAAINKYNHDIALLELDEPLVLNSYVTPICIADKEYTNIFLKFGSGYVSGWGRVFHKGYSALVLQYLRVPLVDRATCLESTKFTIYNNMFCAGFHEGGRDSCQGDSGGPHVTEVEGTSFLTGIISWGEECAMKGKYGIYTKVSEYVNWIKNKAKLT",
    "% of WT kcat/KM, %": 577
  }
]
